These measurements were taken from ChEMBL document CHEMBL3988442.

test_system: Tyrosyl-tRNA synthetase, putative (Trypanosoma cruzi (strain CL Brener)) (UniProt Q4DSP6)
Sequence (whole entry): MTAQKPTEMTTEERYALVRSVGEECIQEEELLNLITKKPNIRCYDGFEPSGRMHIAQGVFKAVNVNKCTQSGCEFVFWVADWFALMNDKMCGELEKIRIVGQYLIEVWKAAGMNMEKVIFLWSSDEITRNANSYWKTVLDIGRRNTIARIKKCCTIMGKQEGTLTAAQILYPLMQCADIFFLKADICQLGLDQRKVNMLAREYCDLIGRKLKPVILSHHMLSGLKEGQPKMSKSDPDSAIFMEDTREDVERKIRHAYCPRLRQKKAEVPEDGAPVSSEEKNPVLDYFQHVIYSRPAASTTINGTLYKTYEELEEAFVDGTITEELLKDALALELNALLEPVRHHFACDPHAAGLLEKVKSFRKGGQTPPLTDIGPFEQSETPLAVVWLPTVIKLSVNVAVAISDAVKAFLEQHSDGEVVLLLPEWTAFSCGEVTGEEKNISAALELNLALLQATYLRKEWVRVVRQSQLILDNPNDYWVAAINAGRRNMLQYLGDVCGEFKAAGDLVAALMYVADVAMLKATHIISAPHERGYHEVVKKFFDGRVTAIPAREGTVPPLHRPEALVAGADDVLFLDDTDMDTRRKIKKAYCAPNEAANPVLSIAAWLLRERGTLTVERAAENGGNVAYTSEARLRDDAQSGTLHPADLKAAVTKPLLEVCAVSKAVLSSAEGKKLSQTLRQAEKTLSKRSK
assay_overview: Trypanosoma cruzi tyrosyl tRNA synthetase (TcYRS) SOP
Assay type: functional
Parameters: scale not given: direction of the effect not stated beside the values
experimental_conditions: 30 µM
property: Percent Effect (%)
One number for each entry, in %.

compound	unit_abbreviation	Percent Effect
COc1ccccc1CN1CCC2(CC1)CC(Oc1ccccn1)CO2 (configuration not stated)	%	8.97

Could you report Percent Effect for every entry in the following list?
1. Cn1nccc1C(=O)N1CCOC(Cc2cccnc2)C1 (configuration not stated)
2. N#CC(Sc1nnnn1C1CCOCC1)C1CCCCC1 (configuration not stated)
3. O=C(CN1CCN(CC(O)C2CC2)CC1)NCc1ccc(F)cc1 (configuration not stated)

Result:
1. 16.7
2. 6.17
3. 19.2

----------
test_system: Proteasome subunit beta (Trypanosoma cruzi)
assay_overview: Trypanosoma cruzi proteasome chymotrypsin-like activity (TcProtChymo) assay. Also: in the data most compounds retested in dose-response had high values.
Type: functional
Design: scale not given: direction of the effect not stated beside the values
experimental_conditions: 9.37 µM
property: Percent Effect (%)
Numbers only, in %.

Worked set:
molecule	Percent Effect [%]
CN1CCCc2cc(NC(=O)N3CCOC(C(N)=O)C3)ccc21 (configuration not stated)	10.5
COc1ccc(-c2noc(CN3CCc4cncnc4C3)n2)cc1	18.6
COc1cccc(S(=O)(=O)NC(=O)COC2CCCC2)c1	10.6
CN(C)C(=O)NC[C@H]1OC[C@@H]2CCN(Cc3ccoc3)C[C@@H]21	8.38
CCOC(=O)C1CCN(Cc2csc(C(C)(C)C)n2)CC1	-5.98
O=C(c1ccco1)N1CC[C@H]2[C@H]1CCN2CC1CCOCC1	-2.56

Could you report Percent Effect for every entry in the following list?
1. C[C@H](O)CNC(=O)c1cnc(-c2ccccc2)nc1O
2. Cc1ccsc1[C@@H]1CCN(C(=O)CCC(=O)N2CCCCCC2)C[C@H]1O
3. CCOc1ccnc(N2CCN(C(=O)c3cccnc3O)CC2)n1
4. O=C(c1ccc[nH]1)N1CCn2cc(CN3CCCC3)nc2C1
5. COc1ccc(CN2C[C@@H](OCc3ccccn3)[C@H]3COC[C@H]32)cc1
6. COc1cccc(S(=O)(=O)NC(=O)COc2c(C)cccc2C)c1
7. CC(C)c1nnc(NC(=O)NCc2ccnc(N(C)C)c2)s1
8. CC(C(=O)N1CCN(c2ccccc2Cl)CC1)n1cncn1 (configuration not stated)

Result:
11.7
4.91
4.5
9.07
20.1
6.08
15.8
15.3

Could you report Percent Effect for every entry in the following list?
1. Cc1cnc(N2C[C@H]3C[C@H](C(=O)N(C)C)[C@@H](C2)O3)nc1
2. CC1CCN(S(=O)(=O)c2cccn(CC(=O)NC3CCCC3)c2=O)CC1
3. c1ccc(C2CCN(c3cncc(-n4cccn4)n3)CC2)cc1
4. COc1cccc(CN2CCCC2c2c(C)nn(C)c2C)c1 (configuration not stated)

Result:
1: 1.54; 2: 17.2; 3: 14.1; 4: -1.72

Could you report Percent Effect for every entry in the following list?
1. COc1ccccc1CC(=O)N1CCC(NCc2c[nH]nc2C)CC1
2. O=C1CO[C@@H]2CN(S(=O)(=O)c3ccccc3)C[C@H]2N1CC1CC1
3. CN(C)CC(=O)N1CCOC2(CCCN(c3ncccc3F)C2)C1 (configuration not stated)
4. Cc1nc(CN2CCCC(Cn3cc(CCO)nn3)C2)c[nH]1 (configuration not stated)
5. Cc1cc(CN(Cc2cccs2)CC2CCCO2)no1 (configuration not stated)
6. CCO[C@H]1CO[C@@]2(CCCN(Cc3nc(C)cs3)C2)C1

Result:
3.95
7.86
4.48
5.17
6
7.79

----------
test_system: Tyrosyl-tRNA synthetase, putative (Trypanosoma cruzi (strain CL Brener))
assay_overview: Trypanosoma cruzi tyrosyl tRNA synthetase (TcYRS) SOP
Format: functional
Design: scale not given: direction of the effect not stated beside the values
experimental_conditions: 30 µM
Task for the reader: assign each of the following molecules its reported Percent Effect.
Give bare numbers, in %.

molecule	test_system	property	unit_abbreviation	measurement
O=C(c1ccccc1N1CCOCC1)N1CCCC(n2cccn2)C1 (configuration not stated)	Tyrosyl-tRNA synthetase, putative (Trypanosoma cruzi (strain CL Brener))	Percent Effect	%	13.6
COCCC(=O)N1CCc2cc(Cl)cc(Cl)c2C1	Tyrosyl-tRNA synthetase, putative (Trypanosoma cruzi (strain CL Brener))	Percent Effect	%	-1.24

Could you report Percent Effect for every entry in the following list?
1. COc1cc(CN2CC[C@@]3(CCCO3)[C@@H](O)C2)ccc1F
2. c1ccc(-c2nccc(CNCC3CCCN3c3cccnn3)n2)cc1 (configuration not stated)

Result:
1. 16.9
2. -2.44

Could you report Percent Effect for every entry in the following list?
1. Cn1ccnc1CN1CCN(Cc2ccccc2C#N)CC1
2. O=C(c1cccc(F)c1)N1CCN2C[C@H](OCc3cccnc3)C[C@H]2C1

Result:
18.5
14.1

Could you report Percent Effect for every entry in the following list?
1. Cn1c(Cn2ccnc2)nnc1C1CCN(C(=O)C2(C)CC2)CC1
2. Cn1ncc2c(=O)[nH]c(CN3CCCC3c3cccs3)nc21 (configuration not stated)
3. CC(C)c1nn(C)c(Cl)c1CNCc1ccc2c(c1)OCCO2

Result:
18.5
11.4
16.1

----------
test_system: Ubiquitin-activating enzyme e1, putative (Leishmania donovani (strain BPK282A1))
Sequence (whole entry): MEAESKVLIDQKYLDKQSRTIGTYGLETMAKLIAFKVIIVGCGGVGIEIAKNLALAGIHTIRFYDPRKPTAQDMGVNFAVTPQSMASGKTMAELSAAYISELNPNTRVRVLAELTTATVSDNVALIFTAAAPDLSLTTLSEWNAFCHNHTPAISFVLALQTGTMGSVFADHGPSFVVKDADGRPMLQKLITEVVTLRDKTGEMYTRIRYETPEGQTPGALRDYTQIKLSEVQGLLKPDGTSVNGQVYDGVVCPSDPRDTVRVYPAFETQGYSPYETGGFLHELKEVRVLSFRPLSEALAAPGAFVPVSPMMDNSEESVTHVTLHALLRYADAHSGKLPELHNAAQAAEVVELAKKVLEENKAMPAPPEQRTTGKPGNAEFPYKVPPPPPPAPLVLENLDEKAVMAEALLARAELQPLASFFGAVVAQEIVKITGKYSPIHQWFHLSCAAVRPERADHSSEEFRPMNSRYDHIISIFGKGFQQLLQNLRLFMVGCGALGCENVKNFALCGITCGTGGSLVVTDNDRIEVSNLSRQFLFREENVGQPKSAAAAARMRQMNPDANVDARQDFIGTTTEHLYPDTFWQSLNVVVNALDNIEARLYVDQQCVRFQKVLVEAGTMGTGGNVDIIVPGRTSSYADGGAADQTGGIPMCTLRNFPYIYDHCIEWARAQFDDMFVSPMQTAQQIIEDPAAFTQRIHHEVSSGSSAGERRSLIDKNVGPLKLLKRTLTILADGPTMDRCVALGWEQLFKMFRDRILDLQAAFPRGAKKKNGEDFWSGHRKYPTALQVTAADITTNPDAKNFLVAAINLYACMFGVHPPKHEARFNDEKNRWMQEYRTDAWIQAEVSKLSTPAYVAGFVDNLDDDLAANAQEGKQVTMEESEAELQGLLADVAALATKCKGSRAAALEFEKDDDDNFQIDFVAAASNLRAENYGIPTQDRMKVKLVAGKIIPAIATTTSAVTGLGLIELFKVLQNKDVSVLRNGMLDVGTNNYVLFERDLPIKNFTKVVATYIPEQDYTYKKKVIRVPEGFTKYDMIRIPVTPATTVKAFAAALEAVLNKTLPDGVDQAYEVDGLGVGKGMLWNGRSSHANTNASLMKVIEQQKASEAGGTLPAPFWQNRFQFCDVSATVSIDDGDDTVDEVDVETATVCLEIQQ
assay_overview: Leishmania donovani Ubiquitin Activating Enzyme (LdE1)
Assay type: functional
Parameters: scale not given: direction of the effect not stated beside the values
experimental_conditions: 30 µM
Potency and affinity values are given separately.
property: Percent Effect (%)
Give bare numbers, in %.

compound	Percent Effect [%]
CC(=O)N1CCCCC1c1nc(N)ncc1-c1ccccc1 (stereo unspecified)	13.3
Cc1nn(C)c(C)c1C1CCCN1C(=O)c1ccc(CN(C)C)cc1 (stereo unspecified)	21.6
CN(C)CC1(O)CCN(S(=O)(=O)c2ccc(F)cc2)C1 (stereo unspecified)	20.3
Cc1ccc(N2CCCC(NCC(=O)NCC3CC3)C2)nn1 (stereo unspecified)	6.33
COc1ccc(C(=O)N2CCCC2c2ccco2)cc1OC (stereo unspecified)	2.6

Assay Ubiquitin-activating enzyme e1, putative (Leishmania donovani (strain BPK282A1)), sample c1ncn(CC2CCCCN2Cc2csc(C3CCCC3)n2)n1 (stereo unspecified) , Percent Effect read: -5.2
